# target-desc: Cannabinoid receptor 2 (Homo sapiens, UniProt P34972, V113M)
# Sequence (P34972 whole entry V113M): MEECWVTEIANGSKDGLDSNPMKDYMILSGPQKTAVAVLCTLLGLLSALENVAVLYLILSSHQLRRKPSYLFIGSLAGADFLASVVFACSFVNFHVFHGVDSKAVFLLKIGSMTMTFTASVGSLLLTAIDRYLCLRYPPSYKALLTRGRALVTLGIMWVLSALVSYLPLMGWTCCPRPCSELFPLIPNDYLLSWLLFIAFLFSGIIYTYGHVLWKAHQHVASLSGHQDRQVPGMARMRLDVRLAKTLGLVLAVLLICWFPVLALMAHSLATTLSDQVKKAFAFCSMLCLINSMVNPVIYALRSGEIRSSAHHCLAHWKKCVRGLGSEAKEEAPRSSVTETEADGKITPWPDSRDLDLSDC
# method-summary: Partial agonist activity at CBR2 V1133.32M mutant (unknown origin) expressed in HEK293T assessed as increase in picometer shifts of reflected light wavelengths by DMR assay
# Format: functional, cell-based
endpoint: pEC50
The scale used: pEC50 is minus the common logarithm of the concentration in molar units.

Which pEC50 value is on record for CCCC(C)(C)c1cc(O)c2c(c1)OC(C)(C)[C@@H]1CC=C(C)C[C@@H]21 ?
6.30

====

# target-desc: Cannabinoid receptor 2 (Homo sapiens, UniProt P34972, V113M)
# method-summary: Partial agonist activity at CBR2 V1133.32M mutant (unknown origin) expressed in HEK293T assessed as increase in ERK1/2 phosphorylation incubated for 7 mins in presence of cannabidiol by AlphaScreenSureFire method
# Assay type: functional, cell-based
endpoint: pEC50
FYI, pEC50 means -log10 of a concentration in mol per litre.

Need pEC50 of CCCC(C)(C)c1cc(O)c2c(c1)OC(C)(C)[C@@H]1CC=C(C)C[C@@H]21 , thanks.
7.40
